Data provenance is patent US11559538B2.

# Tested on: IFNγ
# experiment: Cytokine assay: IFNγ release from PHA-L stimulated human PBMCs
# Type: cell-based
# condition context: Homo sapiens, PBMC
pIC50: −log10 of the molar value.
Returns met if the recorded pIC50 is greater than or equal to 8, and not met otherwise.

In: Kindly determine if pIC50 recorded for CCOc1c(OC)ccc(-c2cncc(C3COB(O)C3)c2)c1C(F)(F)F (single isomer, unassigned) [Example 95] is above or exactly 8.
Out: met

In: Kindly determine if pIC50 recorded for CCOc1cc(-c2c(C)ncc(C3COB(O)C3)c2C)ccc1OC (single isomer, unassigned; enantiomer 1) is above or exactly 8.
Out: met

In: Kindly determine if pIC50 recorded for CCCOc1cccc(-c2cncc(C3COB(O)C3)c2)c1 (single isomer, unassigned) [Example 146] is above or exactly 8.
Out: not met

Then there is this molecule:
In: Kindly determine if pIC50 recorded for CCOc1cc(-c2cncc(C3COB(O)C3)c2)c(Cl)cc1OC (single isomer, unassigned) [Example 15] is above or exactly 8.
Out: met

----------
Overview of reported IC50 across a group of compounds:
# Test system: IL-13
# experiment: Cytokine assay: IL-13 release from PHA-L stimulated human PBMCs
# Format: cell-based
# condition context: Homo sapiens, PBMC, read-out: IL13 IC50

Field: example entries. Status: answers known.
In: Dear colleague, I am looking for the recorded IC50 of the following compound: CCCOc1cc(-c2cncc(C3COB(O)C3)c2)ccc1SC (single isomer, unassigned) [Example 114]
Out: 2910 nM

In: Dear colleague, I am looking for the recorded IC50 of the following compound: CCCOc1c(OC)ccc(-c2cccc(C3COB(O)C3)n2)c1C#N (centres unmarked) [Example 86]
Out: 1330 nM

In: Dear colleague, I am looking for the recorded IC50 of the following compound: CCOc1cc(-c2cncc([C@@H]3COB(O)C3)c2)ccc1OC [Example 3]
Out: 165 nM

In: Dear colleague, I am looking for the recorded IC50 of the following compound: CCOc1cc(-c2cncc(C3COB(O)C3)c2)cc(C#N)c1OC (single isomer, unassigned) [Example 119]
Out: 1190 nM

Switching to the query record.
In: Dear colleague, I am looking for the recorded IC50 of the following compound: CCOc1cc(-c2cccc(C3COB(O)C3)n2)ccc1SC (centres unmarked) [Example 203]
Out: 2180 nM

----------
# Tested on: IL-13
# experiment: Cytokine assay: IL-13 release from PHA-L stimulated human PBMCs
# Type: cell-based
# condition context: Homo sapiens, PBMC, read-out: IL13 IC50
Simple rule here: IC50 less than 1000 nM is Fulfilled, otherwise Not fulfilled.

Worked examples follow.
In: Take the compound CCOc1cc(-c2cncc(C3COB(O)C3)c2)c(F)cc1OC (stereo not drawn) [Example 46] and say whether its IC50 is less than 1000 nM.
Out: Fulfilled

In: Take the compound COc1cc(-c2cncc(C3COB(O)C3)c2)ccc1SC (stereo not drawn) and say whether its IC50 is less than 1000 nM.
Out: Not fulfilled

In: Take the compound CCOc1cc(-c2cc([C@@H]3COB(O)C3)cnc2C)ccc1OC (single isomer, unassigned) and say whether its IC50 is less than 1000 nM.
Out: Not fulfilled

In: Take the compound CSc1ccc(-c2cncc(C3COB(O)C3)c2)cc1OC1CCCC1 (stereo not drawn) and say whether its IC50 is less than 1000 nM.
Out: Fulfilled

In: Take the compound CCOc1cc(-c2cncc(C3COB(O)C3)c2)cc(Cl)c1OC (stereo not drawn) and say whether its IC50 is less than 1000 nM.
Out: Fulfilled

In: Take the compound `CCOc1nc(-c2cccc(C3=CB(O)OC3)c2)ccc1OC` and say whether its IC50 is less than 1000 nM.
Out: Not fulfilled

In: Take the compound CCCOc1cc(-c2cncc(C3COB(O)C3)c2)ncc1OC (stereo not drawn) [Example 178] and say whether its IC50 is less than 1000 nM.
Out: Not fulfilled

In: Take the compound CCOc1cc(-c2cncc(C3COB(O)C3)c2C)ccc1OC (stereo not drawn) and say whether its IC50 is less than 1000 nM.
Out: Fulfilled

In: Take the compound COc1ccc(-c2cc(C)cc(C3COB(O)C3)c2)cc1OC (stereo not drawn) and say whether its IC50 is less than 1000 nM.
Out: Not fulfilled

In: Take the compound CCCOc1cc(-c2cncc(C3COB(O)C3)c2)ccc1OCC (stereo not drawn) and say whether its IC50 is less than 1000 nM.
Out: Fulfilled

---
In: Take the compound CCCOc1cc(-c2nc(COC)cc(C3COB(O)C3)n2)ccc1OC (stereo not drawn) [Example 102] and say whether its IC50 is less than 1000 nM.
Out: Not fulfilled

In: Take the compound CCCOc1cc(-c2cccc(C3CCOB(O)C3)n2)ccc1OC (stereo not drawn) and say whether its IC50 is less than 1000 nM.
Out: Not fulfilled

In: Take the compound CCOc1c(OC)ccc(-c2cncc(C3COB(O)C3)c2)c1C(F)F (stereo not drawn) and say whether its IC50 is less than 1000 nM.
Out: Fulfilled

In: Take the compound CCCOc1cc(-c2ccc(F)c(C3COB(O)C3)n2)ccc1OC (single isomer, unassigned; enantiomer 1) and say whether its IC50 is less than 1000 nM.
Out: Not fulfilled

In: Take the compound COc1ccc(-c2cncc(C3COB(O)C3)c2)cc1OCCF (stereo not drawn) and say whether its IC50 is less than 1000 nM.
Out: Fulfilled

In: Take the compound COc1ccc(-c2cccc(C3COB(O)C3)c2)cc1OCCF (stereo not drawn) and say whether its IC50 is less than 1000 nM.
Out: Fulfilled

In: Take the compound CCCOc1cc(-c2cc(C3COB(O)C3)cc(CO)n2)ccc1OC (single isomer, unassigned; enantiomer 1) [Example 180] and say whether its IC50 is less than 1000 nM.
Out: Not fulfilled

In: Take the compound CCCOc1cc(-c2cncc(C3COB(O)C3)c2)ccc1OC(F)F (stereo not drawn) [Example 50] and say whether its IC50 is less than 1000 nM.
Out: Fulfilled
